Below, each entry is listed alongside its reported SERT Ki/NET Ki.
# target.or.test.system: hSERT (Homo sapiens)
# Construct: expressed in transfected cells; host or cells: HEK-293 derived cell line, stably transfected; membrane preparation
# Sequence (P31645 whole entry): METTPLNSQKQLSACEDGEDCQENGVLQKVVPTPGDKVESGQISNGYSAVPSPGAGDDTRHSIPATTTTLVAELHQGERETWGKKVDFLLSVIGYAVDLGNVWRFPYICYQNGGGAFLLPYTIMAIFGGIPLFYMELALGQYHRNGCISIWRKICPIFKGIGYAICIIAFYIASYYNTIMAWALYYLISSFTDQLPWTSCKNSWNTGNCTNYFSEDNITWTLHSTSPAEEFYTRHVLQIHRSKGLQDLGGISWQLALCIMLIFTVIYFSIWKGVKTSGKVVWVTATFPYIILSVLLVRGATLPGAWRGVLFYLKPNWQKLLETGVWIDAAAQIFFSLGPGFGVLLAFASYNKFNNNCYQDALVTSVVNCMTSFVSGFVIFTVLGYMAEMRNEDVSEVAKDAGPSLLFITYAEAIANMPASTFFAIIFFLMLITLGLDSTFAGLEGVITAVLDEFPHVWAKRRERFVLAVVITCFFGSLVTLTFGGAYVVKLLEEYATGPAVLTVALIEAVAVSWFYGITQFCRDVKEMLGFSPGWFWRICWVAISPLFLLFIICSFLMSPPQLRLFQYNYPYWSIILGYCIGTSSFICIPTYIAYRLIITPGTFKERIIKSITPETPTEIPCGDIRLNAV
# run.description: hSERT binding assay (Assay 1)
# measurement.context: ratio of SERT Ki to NET Ki (binding)
// no unit, no text: just the number

Consider the worked cases shown below.
molecule | quantity.name | recorded.result
Cc1cc(F)cc(C(Oc2c(Cl)ccc(C)c2Cl)C2CCNC2)c1 (stereo not shown) | SERT Ki/NET Ki | 0.3
Fc1cc(F)cc(C(Oc2cc(Cl)cc(Cl)c2)C2CCNC2)c1 (stereo not shown) [35-16] | SERT Ki/NET Ki | 0.5
Cc1ccc(Cl)c(OC(c2ccc(C#N)cc2)C2CCNC2)c1Cl (stereo not shown) | SERT Ki/NET Ki | 0.6

Next molecule, SERT Ki/NET Ki to be filled in.
Incoming: Fill blank: measured SERT Ki/NET Ki of the molecule Fc1cc(F)c(F)c(OC(c2ccccc2Cl)C2CCNC2)c1 (stereo not shown) is ____.
Outgoing: 0.6

* * *

# target.or.test.system: hNET (Homo sapiens)
# Construct: expressed in transfected cells; host or cells: HEK-293 derived cell line, stably transfected; membrane preparation
# Sequence (P23975 whole entry): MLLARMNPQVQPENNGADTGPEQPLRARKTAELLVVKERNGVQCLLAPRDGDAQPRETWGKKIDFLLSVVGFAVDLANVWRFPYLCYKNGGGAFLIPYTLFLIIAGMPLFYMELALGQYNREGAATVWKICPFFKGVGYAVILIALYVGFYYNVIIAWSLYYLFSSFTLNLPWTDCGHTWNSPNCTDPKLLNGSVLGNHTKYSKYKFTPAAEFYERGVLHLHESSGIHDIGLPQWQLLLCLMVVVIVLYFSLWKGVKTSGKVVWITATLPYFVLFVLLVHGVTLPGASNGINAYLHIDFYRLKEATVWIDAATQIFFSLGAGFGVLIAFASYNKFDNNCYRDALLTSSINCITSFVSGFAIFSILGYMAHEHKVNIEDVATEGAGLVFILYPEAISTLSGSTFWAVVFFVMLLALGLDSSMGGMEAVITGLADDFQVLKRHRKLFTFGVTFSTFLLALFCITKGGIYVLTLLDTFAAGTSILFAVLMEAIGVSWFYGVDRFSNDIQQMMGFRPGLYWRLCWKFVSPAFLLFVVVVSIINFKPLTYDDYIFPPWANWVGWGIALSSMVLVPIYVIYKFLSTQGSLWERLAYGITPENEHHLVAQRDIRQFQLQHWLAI
# run.description: hNET binding assay (Assay 1)
# measurement.context: membranes of HEK-293 cells expressing hNET, 1.0 nM 3H-nisoxetine; read-out: NET pKi (converted)
log10 of Ki values by entry
Reminder: these figures are log10 of reported Ki, in nM before transformation.

Please review the following examples before continuing.
compound | recorded.result
Cc1cccc(OC(c2ccccc2)C2CCNC2)c1 (stereo not drawn) | 0.60
CCOc1ccccc1OC(c1ccccc1)C1CCNC1 (stereo not drawn) | 0.10
Cc1cccc([C@@H](Oc2ccccc2Cl)[C@@H]2CCNC2)c1 (racemic) | 0.60
Clc1cccc(OC(c2cccc(Cl)c2)C2CCNC2)c1 (stereo not drawn) | 0.90
COC(=O)c1c(F)cccc1OC(c1ccccc1)C1CCNC1 (stereo not drawn) | 0.00
Cc1cccc(O[C@@H](c2ccccc2)[C@H]2CCNC2)c1 | 0.80
COc1ccccc1OC(c1cc(F)cc(F)c1)C1CCNC1 (racemic) | -0.10
COc1ccccc1OC(c1ccccc1Cl)C1CCNC1 (stereo not drawn) [Compound 20-17] | 0.00

Incoming: Look up log10 of Ki with hNET (Homo sapiens) for this compound: COc1ccccc1O[C@H](c1cc(F)cc(F)c1)[C@@H]1CCNC1
Outgoing: 0.60

Incoming: Give log10 of Ki (hNET (Homo sapiens)) of the following compound: COc1ccccc1O[C@@H](c1cc(F)cc(F)c1)[C@@H]1CCNC1 (racemic)
Outgoing: 0.70

Incoming: Fill in the recorded log10 of Ki for this compound, with hNET (Homo sapiens) as test system: CCc1ccccc1OC(c1ccccc1)C1CCNC1 (stereo not drawn)
Outgoing: 0.50

Incoming: Identify the measured log10 of Ki of CC(=O)c1ccccc1O[C@H](c1ccccc1)[C@@H]1CCNC1 (stereo in doubt) for hNET (Homo sapiens).
Outgoing: 0.50

Incoming: Recall the recorded log10 of Ki for Brc1cccc(OC(c2ccccc2)C2CCNC2)c1 (stereo not drawn) with hNET (Homo sapiens) and state it.
Outgoing: 0.50

Incoming: Give the reported log10 of Ki for Fc1cccc(C(Oc2ccccc2Cl)C2CCNC2)c1 (stereo not drawn) (system: hNET (Homo sapiens)).
Outgoing: 0.40

Incoming: Give recorded log10 of Ki with hNET (Homo sapiens) for the following compound: Cc1c(Cl)cccc1O[C@H](c1ccccc1)[C@@H]1CCNC1
Outgoing: -0.20
